Below, each entry is listed with its recorded EC50.
target-entity: human PPARγ (Homo sapiens)
Sequence (P37231 238-503 limits assumed): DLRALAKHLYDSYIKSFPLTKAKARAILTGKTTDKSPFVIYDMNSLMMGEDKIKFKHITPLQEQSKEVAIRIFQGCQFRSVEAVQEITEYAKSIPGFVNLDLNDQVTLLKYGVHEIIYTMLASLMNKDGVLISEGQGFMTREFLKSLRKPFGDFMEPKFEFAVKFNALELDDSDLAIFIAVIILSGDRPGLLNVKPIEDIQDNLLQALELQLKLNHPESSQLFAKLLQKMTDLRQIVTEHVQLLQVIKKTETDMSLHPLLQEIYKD
protocol-details: Reporter gene transactivation, hPPAR-GAL4 gamma
reported-conditions: transfected Cos-7 cells, Gal-4 luciferase reporter, 24 hours treatment
measure-name: EC50

[[record]]
smiles_data = "CCCCCCCn1c(=O)c(NCCCCc2cccc(SC(C)(C)C(=O)OCC)c2)nn(Cc2ccccc2)c1=O"
experimental_result = "3 to 10 µM"

[[record]]
smiles_data = "CCCCCCCn1c(=O)c(NCCCc2cccc(OC(C)(C)C(=O)OCC)c2)nn(CCCC(F)(F)F)c1=O"
experimental_result = "3 to 10 µM"

[[record]]
smiles_data = "CCOC(=O)C(C)(C)Oc1cccc(CCCCNc2nn(CCC#N)c(=O)n(CCCC(F)(F)F)c2=O)c1"
experimental_result = "> 10 µM"

[[record]]
smiles_data = "CCCCCCCn1c(=O)c(OCCCCCc2cccc(OC(C)(C)C(=O)OCC)c2)nn(C)c1=O"
experimental_result = "~0.3 µM"

[[record]]
smiles_data = "CCOC(=O)/C=C/Cn1nc(NCCc2ccc(OC(C)(C)C(=O)OCC)cc2)c(=O)n(CCCC(F)(F)F)c1=O"
experimental_result = "> 10 µM"

[[record]]
smiles_data = "CCOC(=O)C(C)(C)Oc1cccc(CCCCCNc2nn(CCCC(F)(F)F)c(=O)n(CCCC(F)(F)F)c2=O)c1"
experimental_result = "3 to 10 µM"

[[record]]
smiles_data = "CCCCCCCn1nc(OCCCCCc2cccc(OC(C)(C)C(=O)OCC)c2)c(=O)n(C)c1=O"
experimental_result = "~1 µM"


====

target-entity: human PPARα (Homo sapiens)
Sequence (Q07869 239-466 limits assumed): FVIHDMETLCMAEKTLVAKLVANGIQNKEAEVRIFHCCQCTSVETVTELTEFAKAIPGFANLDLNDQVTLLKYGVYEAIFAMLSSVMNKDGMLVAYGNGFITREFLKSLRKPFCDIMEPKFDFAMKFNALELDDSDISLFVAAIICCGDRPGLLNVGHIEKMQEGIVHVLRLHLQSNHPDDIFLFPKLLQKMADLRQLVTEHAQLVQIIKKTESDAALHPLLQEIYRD
protocol-details: Reporter gene transactivation, hPPAR-GAL4 alpha
reported-conditions: transfected Cos-7 cells, Gal-4 luciferase reporter, 24 hours treatment
measure-name: EC50

[[record]]
smiles_data = "CCCCCCCn1nc(NCCCc2cccc(OC(C)(C)C(=O)OCC)c2)c(=O)n(Cc2ccccc2)c1=O"
target_entity = "human PPARα (Homo sapiens)"
experimental_result = "3000 to 10000 nM"

[[record]]
smiles_data = "CCCCCCCn1c(=O)c(NCCCCc2cccc(OC(C)(C)C(=O)OCC)c2)nn(CCCC(F)(F)F)c1=O"
target_entity = "human PPARα (Homo sapiens)"
experimental_result = "~30 nM"

[[record]]
smiles_data = "CCCCCCCn1c(=O)c(NCCCc2cccc(OC(C)(C)C(=O)OCC)c2)nn(Cc2ccccc2)c1=O"
target_entity = "human PPARα (Homo sapiens)"
experimental_result = "~1000 nM"

[[record]]
smiles_data = "CCCCCCCn1nc(NCCc2ccc(SC(C)(C)C(=O)O)cc2)c(=O)n(CCCC)c1=O"
target_entity = "human PPARα (Homo sapiens)"
experimental_result = "30 to 100 nM"

[[record]]
smiles_data = "CCOC(=O)C(C)(C)Oc1ccc(COc2nn(C)c(=O)n(CCCC(F)(F)F)c2=O)cc1"
target_entity = "human PPARα (Homo sapiens)"
experimental_result = "3000 to 10000 nM"

[[record]]
smiles_data = "CCCCCCCn1c(=O)c(OCCCCc2ccc(OC(C)(C)C(=O)OCC)cc2)nn(CCCC(F)(F)F)c1=O"
target_entity = "human PPARα (Homo sapiens)"
experimental_result = "~100 nM"

[[record]]
smiles_data = "CCCCCCCn1c(=O)c(OCc2ccc(OC(C)(C)C(=O)OCC)cc2)nn(CCCC(F)(F)F)c1=O"
target_entity = "human PPARα (Homo sapiens)"
experimental_result = "1000 nM"

[[record]]
smiles_data = "CCCCCCCn1c(=O)c(OCCCCCc2cccc(OC(C)(C)C(=O)OCC)c2)nn(C)c1=O"
target_entity = "human PPARα (Homo sapiens)"
experimental_result = "300 to 1000 nM"

[[record]]
smiles_data = "CCCCCCCn1nc(NCCCOc2ccc(OC(C)(C)C(=O)OCC)cc2)c(=O)n(C)c1=O"
target_entity = "human PPARα (Homo sapiens)"
experimental_result = "1000 to 3000 nM"

[[record]]
smiles_data = "CCCCCCCn1nc(OCCCCCc2cccc(OC(C)(C)C(=O)OCC)c2)c(=O)n(CCCC)c1=O"
target_entity = "human PPARα (Homo sapiens)"
experimental_result = "1 to 3 nM"

[[record]]
smiles_data = "CCCCCCCn1nc(NCCc2ccc(OC(C)(C)C(=O)OCC)cc2)c(=O)n(CCCCCCC)c1=O"
target_entity = "human PPARα (Homo sapiens)"
experimental_result = "> 10000 nM"

[[record]]
smiles_data = "CCCCCCCn1c(=O)c(NCCCCc2cccc(SC(C)(C)C(=O)OCC)c2)nn(Cc2ccccc2)c1=O"
target_entity = "human PPARα (Homo sapiens)"
experimental_result = "> 10000 nM"

[[record]]
smiles_data = "CCCCCCCn1c(=O)c(N(CCCc2ccccc2)CCc2ccc(OC(C)(C)C(=O)OCC)cc2)nn(C)c1=O"
target_entity = "human PPARα (Homo sapiens)"
experimental_result = "~10000 nM"

[[record]]
smiles_data = "CCCCCCCn1c(=O)c(NCCCc2cccc(OC(C)(C)C(=O)OCC)c2)nn(CCCC(F)(F)F)c1=O"
target_entity = "human PPARα (Homo sapiens)"
experimental_result = "100 to 300 nM"

[[record]]
smiles_data = "CCCCCCCn1nc(NCCc2ccc(SC(C)(C)C(=O)OCC)cc2)c(=O)n(C)c1=O"
target_entity = "human PPARα (Homo sapiens)"
experimental_result = "300 nM"

[[record]]
smiles_data = "CCCCn1c(=O)c(OCCCCCc2cccc(OC(C)(C)C(=O)O)c2)nn(C)c1=O"
target_entity = "human PPARα (Homo sapiens)"
experimental_result = "~30 nM"

[[record]]
smiles_data = "CCOC(=O)C(C)(C)Oc1cccc(OCCCOc2nn(CCCC(F)(F)F)c(=O)n(CCCC(F)(F)F)c2=O)c1"
target_entity = "human PPARα (Homo sapiens)"
experimental_result = "30 to 100 nM"

[[record]]
smiles_data = "CCCCCCCn1nc(NCCCCc2cccc(SC(C)(C)C(=O)OCC)c2)c(=O)n(C)c1=O"
target_entity = "human PPARα (Homo sapiens)"
experimental_result = "3000 to 10000 nM"

[[record]]
smiles_data = "CCCCCCCn1nc(NCCc2ccc(OC(C)(C)C(=O)OCC)cc2)c(=O)n(Cc2ccccc2)c1=O"
target_entity = "human PPARα (Homo sapiens)"
experimental_result = "~1000 nM"

[[record]]
smiles_data = "CCCCn1nc(OCCCCCc2cccc(OC(C)(C)C(=O)OCC)c2)c(=O)n(CCCC)c1=O"
target_entity = "human PPARα (Homo sapiens)"
experimental_result = "10 to 30 nM"

[[record]]
smiles_data = "CCOC(=O)C(C)(C)Oc1ccc(CCCCOc2nn(C)c(=O)n(CCCC(F)(F)F)c2=O)cc1"
target_entity = "human PPARα (Homo sapiens)"
experimental_result = "30 to 100 nM"

[[record]]
smiles_data = "CCCCCCCn1nc(OCCCOc2cccc(OC(C)(C)C(=O)OCC)c2)c(=O)n(C)c1=O"
target_entity = "human PPARα (Homo sapiens)"
experimental_result = "~3000 nM"

[[record]]
smiles_data = "CCCCCCCn1nc(OCCCCCc2cccc(OC(C)(C)C(=O)OCC)c2)c(=O)n(C)c1=O"
target_entity = "human PPARα (Homo sapiens)"
experimental_result = "300 to 1000 nM"

[[record]]
smiles_data = "CCOC(=O)C(C)(C)Oc1cccc(CCCCNc2nn(CCCC(F)(F)F)c(=O)n(CCCC(F)(F)F)c2=O)c1"
target_entity = "human PPARα (Homo sapiens)"
experimental_result = "10 to 30 nM"

[[record]]
smiles_data = "CCCCCCCn1c(=O)c(OCCc2ccc(OC(C)(C)C(=O)OCC)cc2)nn(C)c1=O"
target_entity = "human PPARα (Homo sapiens)"
experimental_result = "> 10000 nM"


====

target-entity: human PPARα (Homo sapiens, UniProt Q07869)
Sequence (Q07869 239-466 limits assumed): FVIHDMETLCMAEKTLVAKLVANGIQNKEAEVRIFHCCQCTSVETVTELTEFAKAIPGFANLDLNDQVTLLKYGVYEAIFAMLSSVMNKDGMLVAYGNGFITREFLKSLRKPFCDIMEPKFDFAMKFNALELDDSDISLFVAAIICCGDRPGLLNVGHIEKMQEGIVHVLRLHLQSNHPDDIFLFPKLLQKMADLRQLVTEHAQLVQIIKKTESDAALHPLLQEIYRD
protocol-details: Reporter gene transactivation, hPPAR-GAL4 alpha
reported-conditions: transfected Cos-7 cells, Gal-4 luciferase reporter, 24 hours treatment
measure-name: EC50

[[record]]
molecule = "CCCCCCCn1nc(NCCCCc2cccc(OC(C)(C)C(=O)OCC)c2)c(=O)n(Cc2ccccc2)c1=O [Example 91]"
experimental_result = "0.3 to 1 µM"

[[record]]
molecule = "CCOC(=O)C(C)(C)Oc1cccc(CCCNc2nn(CCCC(F)(F)F)c(=O)n(CCCC(F)(F)F)c2=O)c1 [Example 66]"
experimental_result = "0.03 to 0.1 µM"

[[record]]
molecule = "CCOC(=O)C(C)(C)Oc1cccc(CCCNc2nn(C)c(=O)n(CCCC(F)(F)F)c2=O)c1 [Example 65]"
experimental_result = "0.1 to 0.3 µM"

[[record]]
molecule = "CCCCCCCn1nc(NCCCCc2cccc(OC(C)(C)C(=O)O)c2)c(=O)n(CCCC(F)(F)F)c1=O [Example 84]"
experimental_result = "0.003 to 0.01 µM"

[[record]]
molecule = "CCOC(=O)C(C)(C)Oc1ccc(OCCNc2nn(CCCC3CCCCC3)c(=O)n(CCCC3CCCCC3)c2=O)cc1 [Example 43]"
experimental_result = "~3 µM"

[[record]]
molecule = "CCOC(=O)C(C)(C)Oc1cccc(CCOc2nn(C)c(=O)n(CCCC(F)(F)F)c2=O)c1 [Example 3]"
experimental_result = "~3 µM"

[[record]]
molecule = "CCCCCCCn1nc(NCCCCc2cccc(OC(C)(C)C(=O)OC(C)(C)C)c2)c(=O)n(CCCC(F)(F)F)c1=O [Example 83]"
experimental_result = "> 10 µM"

[[record]]
molecule = "CCCCCCCn1nc(NCCCCc2cccc(SC(C)(C)C(=O)OCC)c2)c(=O)n(Cc2ccccc2)c1=O [Example 101]"
experimental_result = "1 to 3 µM"

[[record]]
molecule = "CCCCCCCn1c(=O)c(NCCCOc2ccc(SC(C)(C)C(=O)OCC)cc2)nn(C)c1=O [Example 49]"
experimental_result = "> 10 µM"

[[record]]
molecule = "CCOC(=O)C(C)(C)Oc1cccc(CCCCNc2nn(CCCC(F)(F)F)c(=O)n(CC=C(C)C)c2=O)c1 [Example 76]"
experimental_result = "0.01 to 0.03 µM"

[[record]]
molecule = "CCCCCCCn1nc(NCCCCc2cccc(SC(C)(C)C(=O)OCC)c2)c(=O)n(CCCCCCC)c1=O [Example 98]"
experimental_result = "> 10 µM"

[[record]]
molecule = "CCCCCCCN(CCCCOc1cccc(SC(C)(C)C(=O)OCC)c1)c1nn(C)c(=O)n(C)c1=O [Example 54]"
experimental_result = "> 10 µM"

[[record]]
molecule = "CCOC(=O)C(C)(C)Oc1cccc(CCCCCOc2nn(CCCC(F)(F)F)c(=O)n(C)c2=O)c1 [Example 9]"
experimental_result = "3 to 10 µM"

[[record]]
molecule = "CCCCCCCn1nc(OCCCc2cccc(OC(C)(C)C(=O)OCC)c2)c(=O)n(C)c1=O [Example 5]"
experimental_result = "~3 µM"

[[record]]
molecule = "CCCCCCCn1nc(OCCCCOc2cccc(SC(C)(C)C(=O)OCC)c2)c(=O)n(C)c1=O [Example 37]"
experimental_result = "> 10 µM"

[[record]]
molecule = "CCOC(=O)C(C)(C)Oc1cccc(CCCCCOc2nn(C)c(=O)n(CCCC(F)(F)F)c2=O)c1 [Example 16]"
experimental_result = "~0.1 µM"

[[record]]
molecule = "CCCCCCCn1nc(NCCc2cccc(OC(C)(C)C(=O)OCC)c2)c(=O)n(C)c1=O [Example 57]"
experimental_result = "~3 µM"

[[record]]
molecule = "CCCCCCCn1c(=O)c(OCCCCCc2cccc(OC(C)(C)C(=O)OCC)c2)nn(Cc2ccccc2)c1=O [Example 19]"
experimental_result = "~3 µM"

[[record]]
molecule = "CCCCCCCn1nc(OCCCOc2cccc(SC(C)(C)C(=O)OCC)c2)c(=O)n(C)c1=O [Example 34]"
experimental_result = "> 10 µM"

[[record]]
molecule = "CCCCCCCn1c(=O)c(NCCc2cccc(SC(C)(C)C(=O)OCC)c2)nn(C)c1=O [Example 61]"
experimental_result = "~3 µM"

[[record]]
molecule = "CCCCCCCn1c(=O)c(NCCc2cccc(OC(C)(C)C(=O)OCC)c2)nn(CCCC(F)(F)F)c1=O [Example 60]"
experimental_result = "> 10 µM"

[[record]]
molecule = "CCCCCCCn1c(=O)c(NCCCCc2cccc(OC(C)(C)C(=O)OCC)c2)nn(CCC#N)c1=O [Example 86]"
experimental_result = "> 10 µM"

[[record]]
molecule = "CCCCCCCn1c(=O)c(OCCCc2cccc(OC(C)(C)C(=O)OCC)c2)nn(C)c1=O [Example 7]"
experimental_result = "0.3 to 1 µM"

[[record]]
molecule = "CCOC(=O)C(C)(C)Sc1cccc(CCCCNc2nn(CCCC(F)(F)F)c(=O)n(C)c2=O)c1 [Example 93]"
experimental_result = "> 10 µM"

[[record]]
molecule = "CCCCCCCn1nc(OCCCCc2ccc(OC(C)(C)C(=O)OCC)cc2)c(=O)n(C)c1=O [Example 29]"
experimental_result = "3 to 10 µM"

